The measured values listed here are drawn from the supplement of paper PMC11451515.

# System: SEM cells
# test.summary: cell viability relative to DMSO control; higher = less cytotoxic
# run.parameters: RPMI 5 mM glucose + 10% FBS; 48 h; 0.000781 µM
Would you mind telling me the reported cell viability of each entry?
Numbers only, in %.

Recorded results for 3 compounds are shown here.
1. O=C(c1ccc(OCCN2CCCCC2)cc1)c1c(-c2ccc(O)cc2)sc2cc(O)ccc12
108
2. c1ccc2[nH]c(-c3cscn3)nc2c1
98.5
3. CC[C@H](/C=C/[C@@H](C)[C@H]1CC[C@H]2[C@@H]3CC=C4C[C@@H](O)CC[C@]4(C)[C@H]3CC[C@]12C)C(C)C
102

Now, please, on to the next compound.
Prompt: # input compound: CN(C)[S+](=O)([O-])c1ccc2c(c1)C(=Cc1cc3c([nH]1)CCCC3)C(=O)N2 ; wanted: its cell viability
Completion: 90.5

###

# Test system: P12-Ichikawa
# test.summary: cell viability relative to DMSO control; higher = less cytotoxic
# run.parameters: HPLM + 10% dialyzed FBS; 48 h; 0.0211 µM
assay.endpoint: cell viability (%)
Answers are plain numbers, in %.

1) S=C(NCc1ccc2c(c1)OCO2)N1CCN(c2ncnc3c2oc2ccccc23)CC1
106
2) CC1CNc2c(cccc2[S+](=O)([O-])N[C@@H](CCCNC(=N)N)C(=O)N2CC[C@@H](C)C[C@@H]2C(=O)O)C1 (some centres undefined)
100
3) O=C(O)Cn1nnc(-c2cc(N3CCC(Oc4cc(F)ccc4Br)CC3)no2)n1
114
4) C=C1/C(=C\C=C2/CCC[C@]3(C)[C@@H]([C@H](C)CCCC(C)(C)O)CC[C@@H]23)C[C@@H](O)C[C@@H]1O
131
5) CCOC(=O)N1CCN(/[N+]([O-])=N/Oc2ccc([N+](=O)[O-])cc2C#N)CC1
107

For every record below, what is its cell viability?
1. C[C@]12CCC(=O)C=C1CC[C@@H]1[C@@H]2[C@@H](O)C[C@@]2(C)[C@H]1CC[C@]2(O)C(=O)CO
2. CC(C)OC(=O)/C1=C/N(CC(C)(C)C2=C1[NH]C3=CC=CC=C23)C(=O)C4=CC=C(F)C(=C4)F
3. Cc1nn(Cc2ccccc2Cl)c(C)c1CN(C)CC(O)COc1ccc(Cl)cc1 (centres undefined)

Completion:
1. 107
2. 89.6
3. 104

Prompt: Notebook entry, P12-Ichikawa assay: cell viability of COC(=O)Nc1cc(Nc2cc(NC3CC3)c3ncc(C#N)n3n2)c(Cl)c(N2CCN(C)CC2)c1 = ?
Completion: 111

###

What cell viability was measured for each of the following?
# Tested on: SEM cells
# test.summary: cell viability relative to DMSO control; higher = less cytotoxic
# run.parameters: HPLM + 10% dialyzed FBS; 48 h; 0.00234 µM
Answers are plain numbers, in %.

Observe how each entry below is paired with its result.
1. OC(c1cc(C(F)(F)F)nc2c(C(F)(F)F)cccc12)C1CCCCN1 (stereo not given)
115
2. CCCc1cc(C(N)=S)ccn1
110
3. CN(C)C1CCN(C(=O)c2ccc(NC(=O)Nc3nc(N4CCOCC4)nc(N4CCOCC4)n3)cc2)CC1
92.1

Could I get cell viability for every one of these entries?
1. CNC(=O)c1ccc2cc(C3(O)CCn4cncc43)ccc2c1 (stereo not given)
2. CCN1CCN(c2ccc(Nc3cc(N(C)C(=O)Nc4c(Cl)c(OC)cc(OC)c4Cl)ncn3)cc2)CC1

Completion:
1. 119
2. 63.6

###

# Tested on: SEM cells
# test.summary: cell viability relative to DMSO control; higher = less cytotoxic
# run.parameters: RPMI 5 mM glucose + 10% FBS; 48 h; 1.71 µM
Please assign Not fulfilled whenever cell viability is at or above 90%, and Fulfilled whenever it is below.

Please review the following examples before continuing.
1) OC[C@H]1O[C@H]([C@H](O)[C@@H]1O)N2\C=C/C(=O)NC2=O
Fulfilled
2) CN[C@H]1CCC2=CC(=C(OC)C(=C2C/3=C/C=C(OC)\C(=O)/C=C13)OC)OC
Fulfilled
3) C[C@]12CC[C@H]3[C@@H](CC[C@H]4NC(=O)\C=C/[C@]34C)[C@@H]1CC[C@@H]2C(=O)NC5=CC(=CC=C5C(F)(F)F)C(F)(F)F
Not fulfilled
4) N[S+]([O-])(=O)C1=C(Cl)C=C2\N=C/N[S+]([O-])(=O)C2=C1
Not fulfilled
5) Cn1cnc2c(F)c(Nc3ccc(Br)cc3F)c(C(=O)NOCCO)cc21
Fulfilled
6) O=C(c1ccc(F)cc1)N1CCC[C@H](c2nc(-c3ccc(F)cc3)no2)C1
Not fulfilled

Could you now consider this next compound?
Prompt: Threshold test, cell viability < 90%: C[C@]12CC[C@@H]3c4ccc(O)cc4CC[C@H]3[C@@H]1[C@@H](O)[C@@H](O)[C@@H]2O
Completion: Fulfilled

###

What cell viability was measured for each of the following?
# Test system: NOMO1
# test.summary: cell viability relative to DMSO control; higher = less cytotoxic
# run.parameters: HPLM + 10% dialyzed FBS; 48 h; 0.000781 µM
One number for each entry, in %.

Examples with answers:
1) CNCC(O)c1ccc(O)cc1 (centres undefined)
114
2) CC1CNc2c(cccc2[S+](=O)([O-])N[C@@H](CCCNC(=N)N)C(=O)N2CC[C@@H](C)C[C@@H]2C(=O)O)C1 (some centres undefined)
117
3) N[S+]([O-])(=O)C1=CC=C(NC/2=C/C(=O)C3=CC=CC=C3C2=O)C=C1
100
4) C[C@@H]1COCCN1c1cc(C2([S@+](C)(=N)[O-])CC2)nc(-c2ccnc3[nH]ccc23)n1
94.9
5) Cc1nn(Cc2ccccc2Cl)c(C)c1CN(C)CC(O)COc1ccc(Cl)cc1 (centres undefined)
106
6) c1ccc(CCCN2CCN(CCOC(c3ccccc3)c3ccccc3)CC2)cc1
91.4
7) C[C@](Cc1c[nH]c2ccccc12)(NC(=O)OC1C2CC3CC(C2)CC1C3)C(=O)NC[C@H](NC(=O)CCC(=O)O)c1ccccc1 (some centres undefined)
123
8) CN[C@@H]1[C@@H](O)[C@@H](O[C@@H]2[C@@H](O)[C@H](O[C@H]3O[C@H](CN)[C@@H](O)[C@H](O)[C@H]3O)[C@@H](N)C[C@H]2NC(=O)[C@@H](O)CN)OC[C@]1(C)O
120

Please give cell viability, item by item, for the list that follows.
1. CCOC(=O)c1ccc(OC(=O)CCCCCNC(=N)N)cc1
2. CNC(=O)c1ccc2cc(C3(O)CCn4cncc43)ccc2c1 (centres undefined)
3. COc1ccc([C@@H]2CC(=O)c3c(O)cc(O[C@@H]4O[C@H](CO[C@@H]5O[C@@H](C)[C@H](O)[C@@H](O)[C@H]5O)[C@@H](O)[C@H](O)[C@H]4O)cc3O2)cc1O
4. COCC1(CO)C(=O)C2CCN1CC2 (centres undefined)
5. CCN1CCN(CC1)CC(=O)NC2=CC=C(C3=C2C4=C(S3)C=CC=C4)C5=C6O\C(=C/C(=O)C6=CC=C5)N7CCOCC7
6. CC(C)(C)NC(=O)Nc1cccc(Nc2ncc(F)c(NC(C)(C)CO)n2)c1
7. CN[C@@H](C)[C@H]1[C@H](O)C[C@@]2(C)[C@@H]3CC[C@H]4C(C)(C)[C@@H](NC)CC[C@@]45C[C@@]35CC[C@]12C
8. CC(C)(O)CC[C@@H](O)[C@](C)(O)[C@H]1CC[C@@]2(O)C/3=C/C(=O)[C@@H]4C[C@@H](O)[C@@H](O)C[C@]4(C)[C@H]3CC[C@]12C

Completion:
1: 126; 2: 124; 3: 107; 4: 116; 5: 108; 6: 99.9; 7: 81.4; 8: 111

Look up cell viability for the entries below, preserving their order.
1. CNC(=O)c1ccc(N2C(=S)N(c3cnc(C#N)c(C(F)(F)F)c3)C(=O)C23CCC3)cc1F
2. N[S+]([O-])(=O)C1=C(Cl)C=C2\N=C/N[S+]([O-])(=O)C2=C1
3. ClC1=CC=C(C=C1)C(C#N)C2=C(Cl)C=C(C=C2Cl)N3\N=C/C(=O)NC3=O (centres undefined)

Completion:
79.6
109
82.4

###

# System: P12-Ichikawa
# test.summary: cell viability relative to DMSO control; higher = less cytotoxic
# run.parameters: RPMI 5 mM glucose + 10% FBS; 48 h; 0.00702 µM
Kindly state cell viability for each of the entries shown.
Numbers only, in %.

Consider the following illustrative entries.
1. C[C@H]1C[C@@H]2[C@H](CC[C@@]3(C)[C@H]2CC[C@]3(OC(C)=O)C(C)=O)[C@@]\4(C)CCC(=O)\C=C14
123
2. CC(C)(O)CC[C@@H](O)[C@](C)(O)[C@H]1CC[C@@]2(O)C/3=C/C(=O)[C@@H]4C[C@@H](O)[C@@H](O)C[C@]4(C)[C@H]3CC[C@]12C
93.4
3. Cc1c(C)n(Cc2ccc(-c3ccccc3C(=O)O)cc2)c2ccc(C(=O)N[C@@H](C)c3ccc([N+](=O)[O-])cc3)cc12
102
4. Cc1coc2c1C(=O)C(=O)c1c-2ccc2c(C)cccc12
107

Could you now look at the following compound, please?
Prompt: Find the recorded cell viability belonging to C[C@]12CCC(=O)C=C1CC[C@@H]1[C@@H]2[C@@H](O)C[C@@]2(C)[C@H]1CC[C@]2(O)C(=O)CO and report it.
Completion: 103
